As shown below, each of these compounds has a reported growth value.
System: OVCAR-8 ovarian
Experiment: NCI-60 one-dose screen, 48 h (100 = growth as untreated, 0 = no growth, -100 = all killed)
Settings: 10 µM unless noted
Compounds without any hit were thinned out: in the full panel of roughly 83,000, 20% have a hit.
Measurement Name: growth (%)

> print(dat)
                                   compound  measured.value
1  COc1cc(OC)cc(C(=O)Nc2cccc(C#Cc3cccc4[nH]nc(N)c34)c2)c1            31.2
2  Nc1ccccc1NC(=O)c1ccc(NC(=O)C/C=C/c2cccnc2)cn1            21.5
3  CCc1cccc2c3c(sc12)C(c1ccc(OC)cc1)C(C#N)=C(/N=C/c1ccc(Cl)cc1)O3 (centres undefined)            21.8
4  COc1ccc(/C=N/NC2=NC3C(S2)N(C)C(=O)N3C)cc1 (centres undefined)            35.6
5  COc1ccc(-n2c(SCc3nnc(NC(=O)c4ccc(Br)cc4)s3)nc3cc(OC)c(OC)cc3c2=O)cc1            94.9
6  CCOP(=O)(OCC)OC[C@]12CCC(C)(C)C=C1[C@H]1CC[C@@H]3[C@@]4(C)CC[C@H](OP(=O)(OCC)OCC)C(C)(C)[C@@H]4CC[C@@]3(C)[C@]1(C)CC2           -27.3
7  C=CCOc1cccc(/C=C2\SC(=S)N(C3CC(=O)N(c4ccc(Br)cc4)C3=O)C2=O)c1 (centres undefined)            99.9
8  COc1ccc([C@@H]2c3[nH]c4ccccc4c3C[C@H]3C(=O)N(C4CCN(CC5CCCCC5)CC4)CC(=O)N23)c(OC)c1            82.2
9           COc1ccccc1NCc1cccn1Cc1ccc(F)cc1             103
